# Target Under Test: T1, Human cKIT D1-5 (human cKIT ECD, C-terminal 6x His) (human, UniProt P10721 26-524)
# T1 construct: also called human cKIT-His
# T1 sequence (P10721 other isoform, or with tags, fused parts or gaps limits assumed): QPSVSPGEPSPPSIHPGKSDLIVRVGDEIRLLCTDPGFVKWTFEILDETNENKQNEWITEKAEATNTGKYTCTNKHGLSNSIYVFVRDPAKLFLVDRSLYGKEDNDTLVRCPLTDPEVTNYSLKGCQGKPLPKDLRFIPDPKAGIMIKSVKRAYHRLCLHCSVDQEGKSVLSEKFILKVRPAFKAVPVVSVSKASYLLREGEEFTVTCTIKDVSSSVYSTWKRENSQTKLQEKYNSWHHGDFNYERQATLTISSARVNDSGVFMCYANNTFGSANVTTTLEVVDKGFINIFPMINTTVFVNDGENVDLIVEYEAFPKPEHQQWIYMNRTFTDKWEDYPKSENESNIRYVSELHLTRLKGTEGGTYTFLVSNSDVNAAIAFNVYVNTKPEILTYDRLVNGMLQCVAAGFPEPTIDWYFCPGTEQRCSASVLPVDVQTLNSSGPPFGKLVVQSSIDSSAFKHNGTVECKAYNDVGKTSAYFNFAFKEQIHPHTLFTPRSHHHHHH
# Assay Procedure: SPR (Biacore 2000): antibody captured by anti-human Fc on CM5, cKIT ECD in solution, 25 C, 1:1 fit
Assay Endpoint: pKd
Friendly reminder that pKd comes from taking -log10 of the concentration in mol/L.

The value of pKd measured for the binder NEG027 (antibody, human IgG1, kappa, V domains shown, Humanized, optimized variant of 9P3; human IgG1 kappa) VH: EVQLVESGGGLVQPGGSLRLSCAASGFTFSDYYMAWVRQAPGKGLEWVASINQNTGSTYYLDSVRGRFTISRDNAKNSLYLQMNSLRAEDTAVYYCARGDYYGTTYWYFDVWGQGTTVTVSS VL: EIVMTQSPATLSLSPGERATLSCRASQDISNYLNWYQQKPGQAPRLLIYYTSRLQSGIPARFSGSGSGTDYTLTISSLEPEDFAVYYCQQGKKLWSFGGGTKVEIKR turned out to be 8.87
